Documented ratio of amounts bound vs CE115HA000 across a set of binders
- MEASURED ON: T1, CD3ε homodimer protein (human, UniProt P07766 23-126, limits assumed, sulfo-tag or biotin label in some ECL assays)
- T1 construct: also called human CD3ε homodimer protein; CD3 (CD3ε)
- TEST METHOD NOTES: SPR, CD3ε homodimer on chip;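 also: biacore SPR with antibody variants flowed as analyte over amine-coupled CD3ε homodimer on a CM chip, bound amount of each single-residue H chain variant over that of parent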

BINDER: CE115HA000 G100bS (antibody, name in Kabat numbering, V domains shown) VH: QVQLVESGGGVVQPGRSLRLSCAASGFTFSNAWMHWVRQAPGKGLEWVAQIKAKSNNYATYYAESVKGRFTISRDDSKNSLYLQMNSLKTEDTAVYYCRYVHYGAYYSVDAWGQGTTVTVSS VL: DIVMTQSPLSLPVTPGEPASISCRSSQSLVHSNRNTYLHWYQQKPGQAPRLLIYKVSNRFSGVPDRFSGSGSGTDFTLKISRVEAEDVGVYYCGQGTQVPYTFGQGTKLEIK
ratio of amounts bound vs CE115HA000: 0.52
//
BINDER: CE115HA000 I51E (antibody, name in Kabat numbering, V domains shown) VH: QVQLVESGGGVVQPGRSLRLSCAASGFTFSNAWMHWVRQAPGKGLEWVAQEKAKSNNYATYYAESVKGRFTISRDDSKNSLYLQMNSLKTEDTAVYYCRYVHYGAYYGVDAWGQGTTVTVSS VL: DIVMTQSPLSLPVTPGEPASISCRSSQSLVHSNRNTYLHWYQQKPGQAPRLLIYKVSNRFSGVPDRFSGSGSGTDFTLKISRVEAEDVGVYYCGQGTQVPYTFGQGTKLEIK
ratio of amounts bound vs CE115HA000: 0.55
